# System: RPMI-8226 leukemia
# test: NCI-60 one-dose screen, 48 h (100 = growth as untreated, 0 = no growth, -100 = all killed)
# details: 10 µM unless noted
The panel holds about 83,000 compounds, 20% with a hit somewhere; the sample as a whole holds those more often. Calls of active or inactive are those of the source. How the source made its calls: active means growth percent below 10; inactive means the rest.
Overview of reported growth across a group of compounds:
assay metric: growth

> print(dat)
                                    compound        meas.value
 1  Clc1ccc2c(NCCNc3nc(N4CCOCC4)nc4ccccc34)ccnc2c1     -37% (active)
 2  COc1cc(-c2nn(-c3ccc(C)cc3)cc2C(=O)O)ccc1O  90.9% (inactive)
 3  Cc1cc(N[C@@H]2CCC[C@H](Nc3ccnc4cc(Cl)ccc34)C2)nc(N2CCCCCC2)n1   -52.2% (active)
 4  N#Cc1nnn(-c2ccc(S(N)(=O)=O)cc2)c1NC(=O)CCl  91.4% (inactive)
 5  CCNC(=O)Oc1ccc(/C(=C(\C)c2ccc(Cl)cc2)c2ccc(OCCN(CC)CC)cc2)cc1   -11.4% (active)
 6  CN(C)S(=O)(=O)c1cccc(-c2nc3sc4c(c3c(=O)[nH]2)CCCC4)c1  23.9% (inactive)
 7           N#Cc1cnn(-c2nc3c(Cl)cccc3s2)c1N  95.7% (inactive)
 8                 COc1ccc(N=Nc2nccs2)c(O)c1  21.6% (inactive)
 9  O=[N+]([O-])c1cnc(N2CCN(CC3CC3)CC2)nc1N1CCN(CC2CC2)CC1   100% (inactive)
10  Cc1cc(N2CCSCC2)nc(NC2CCCC(Nc3ccnc4cc(Cl)ccc34)C2)n1 (configuration not stated)   -52.6% (active)
11  CCOc1ccc(-n2nc(C(=O)Nc3cc(OC)c(OC)c(OC)c3)nc2-c2cc(OC)c(OC)c(OC)c2)cc1  55.7% (inactive)
12         Oc1ccccc1-c1nnc(CNc2ccc(Cl)cc2)o1  23.4% (inactive)
13  CC(C)(O)c1cn(CCCCN2C(=O)C(=O)c3ccccc32)nn1  95.9% (inactive)
14  CC1C(/C=N/Nc2ccccc2)C(C#N)(C#N)C1(C#N)C#N (configuration not stated)    82% (inactive)
15         O=c1ccccc(-c2ccc(-c3ccco3)cc2)c1O    8.75% (active)
16  CCC#CC[C@H](O)C/C=C1/C(=O)C=C[C@@H]1C/C=C\CCCC(=O)OC   -13.6% (active)
17  O=C(COc1cccc(/C=C2\COc3ccccc3C2=O)c1)Nc1nccs1     -67% (active)
18  CCOc1cc2ncc(C#N)c(Nc3ccc(OCc4cccc(F)c4)c(Cl)c3)c2cc1NC(=O)CCCCC1CCSS1 (configuration not stated)  78.6% (inactive)
19  C=CC(=O)Nc1cccc(-c2nc(SC)nc(Nc3ccccc3OC)c2C#N)c1  29.7% (inactive)
20  COc1ccc2cc(-c3nn(-c4ccc(C(=O)O)cc4)cc3CO)ccc2c1  95.1% (inactive)
21  CN(Cc1cc(Cl)cc(Cl)c1O)Cc1cc(Cl)cc(Cl)c1O  70.7% (inactive)
22  Cc1nc2c3c(-c4ccccc4)c(-c4ccccc4)oc3ncn2n1  92.7% (inactive)
